The values you see were collected from patent US8455688B2.

system: S. apiospermum; assay: Broth dilution antifungal susceptibility testing, S. apiospermum; assay type: cell-based, Pseudallescheria boydii; details: Scedosporium apiospermum, 48 h, isolate 07-1502; 48 hours; 80% inhibition; read-out: minimum inhibitory concentration (MIC)
Parameter: MIC (µg/mL)
Value expressed in µg/mL; do not type the unit.

Value of measured MIC for the entry `O=C(CCCCCNC(=O)c1ccccc1S)Nc1ccccc1` : 4

Value of measured MIC for the entry `O=C(CCCCCNC(=O)c1ccccc1S)Nc1cccnc1` : 64

Value of measured MIC for the entry `CN(C)c1ccc(NC(=O)CCCCCNC(=O)c2ccccc2S)cc1` : 16

Value of measured MIC for the entry `O=C(NCCCCCCNC(=O)c1ccccc1S)c1ccccc1S` : 2

Value of measured MIC for the entry `COc1ccc(S)c(C(=O)NCCCCCC(=O)Nc2ccccc2)c1` : 4

###

tested on: HepG2 Hepatoma; assay: CellTiter-Glo proliferation assay, HepG2; format: cell-based; settings: Homo sapiens, 72 hr incubation, read-out: IC50 (50% inhibition of proliferation)
Parameter: pIC50
Lab note — pIC50 values are minus log10 of concentrations in M.

Known value: HepG2 Hepatoma pIC50 of the molecule `O=C(CCCCCNC(=O)c1ccccc1S)Nc1cccnc1` equals 4.27

###

Exercise: for every item that follows, state its recorded MIC.
tested on: A. fumigatus; assay: Broth dilution antifungal susceptibility testing, A. fumigatus; format: cell-based, Aspergillus fumigatus; settings: Aspergillus fumigatus, 24 h, isolate 05-388; 24 hours; 80% inhibition; read-out: minimum inhibitory concentration (MIC)

Value of measured MIC for the entry `COc1ccc(S)c(C(=O)NCCCCCC(=O)Nc2ccccc2)c1` : 2 mg/L

Value of measured MIC for the entry `O=C(NCCCCCCNC(=O)c1ccccc1S)c1ccccc1S` : 2 mg/L

Value of measured MIC for the entry `Nc1ccc(NC(=O)CCCCCNC(=O)c2ccccc2S)cc1` : 16 mg/L

Value of measured MIC for the entry `CN(C)c1ccc(NC(=O)CCCCCNC(=O)c2ccccc2S)cc1` : 16 mg/L

Value of measured MIC for the entry `O=C(CCCCCNC(=O)c1ccccc1S)Nc1ccccc1` : 1 mg/L

Value of measured MIC for the entry `O=C(CCCCCNC(=O)c1cc(Cl)ccc1S)Nc1ccccc1` : 2 mg/L

Value of measured MIC for the entry `O=C(CCCCCNC(=O)c1ccccc1S)Nc1cccnc1` : 16 mg/L

###

system: C. albicans; test: Broth dilution antifungal susceptibility testing, C. albicans; assay type: cell-based, Candida albicans; conditions: Candida albicans, 24 h, isolate 07-3006; 24 hours; 50% reduction in turbidity; read-out: minimum inhibitory concentration (MIC)
Exercise: for every item that follows, state its recorded MIC.
Value expressed in µg/mL; do not type the unit.

Value of measured MIC for the entry `Nc1ccc(NC(=O)CCCCCNC(=O)c2ccccc2S)cc1` : 2

Value of measured MIC for the entry `O=C(CCCCCNC(=O)c1ccccc1S)Nc1ccccc1` : 8

Value of measured MIC for the entry `O=C(CCCCCNC(=O)c1ccccc1S)Nc1cccnc1` : 32

Value of measured MIC for the entry `CN(C)c1ccc(NC(=O)CCCCCNC(=O)c2ccccc2S)cc1` : 64

###

Exercise: for every item that follows, state its recorded MIC.
system: R. arrhizus; experiment: Broth dilution antifungal susceptibility testing, R. arrhizus; type: cell-based, Rhizopus oryzae; settings: Rhizopus arrhizus, 24 h, isolate 07-2078; 24 hours; 80% inhibition; read-out: minimum inhibitory concentration (MIC)

Known value: R. arrhizus MIC of the compound O=C(CCCCCNC(=O)c1ccccc1S)Nc1cccnc1 [Compound 205] equals 64 µg/mL

Known value: R. arrhizus MIC of the compound CN(C)c1ccc(NC(=O)CCCCCNC(=O)c2ccccc2S)cc1 [Compound 206] equals > 64 µg/mL

Known value: R. arrhizus MIC of the compound O=C(CCCCCNC(=O)c1ccccc1S)Nc1ccccc1 [Compound 201] equals > 64 µg/mL

Known value: R. arrhizus MIC of the compound Nc1ccc(NC(=O)CCCCCNC(=O)c2ccccc2S)cc1 [Compound 209] equals > 64 µg/mL

Known value: R. arrhizus MIC of the compound O=C(CCCCCNC(=O)c1cc(Cl)ccc1S)Nc1ccccc1 [Compound 210] equals > 64 µg/mL

Known value: R. arrhizus MIC of the compound O=C(NCCCCCCNC(=O)c1ccccc1S)c1ccccc1S [Compound 204, Bis-1,6-(2-mercaptobenzoylamino)hexane] equals > 64 µg/mL

Known value: R. arrhizus MIC of the compound COc1ccc(S)c(C(=O)NCCCCCC(=O)Nc2ccccc2)c1 [Compound 211] equals 8 µg/mL
